Assay: Half life in Sprague-Dawley rat at 1 mg/kg, iv by LC-MS/MS analysis
Type: ADME, organism-based
Conditions: in vivo

{"columns": ["INPUT_SMILES", "UNIT_NAME", "half-life"],
 "data": [
  ["O=C(NCCCN1CCOCC1)c1cc(Oc2ccc(NC(=O)c3cn(-c4ccc(F)c(Cl)c4)c4ncccc4c3=O)cc2F)ccn1", "h", 2.5]
]}

---

Test: AUC(0 to infinity) in Sprague-Dawley rat at 1 mg/kg, iv by LC-MS/MS analysis
Format: ADME, organism-based
Conditions: in vivo

{"columns": ["INPUT_SMILES", "AUC(0-inf) [ng·h/mL]"],
 "data": [
  ["O=C(NCCCN1CCOCC1)c1cc(Oc2ccc(NC(=O)c3cn(-c4ccc(F)c(Cl)c4)c4ncccc4c3=O)cc2F)ccn1", 2870]
]}

---

Assay: AUC(0 to t) in Sprague-Dawley rat at 1 mg/kg, iv by LC-MS/MS analysis
Format: ADME, organism-based
Conditions: in vivo

{"columns": ["INPUT_SMILES", "AUC(0-t) (ng·h/mL)"],
 "data": [
  ["O=C(NCCCN1CCOCC1)c1cc(Oc2ccc(NC(=O)c3cn(-c4ccc(F)c(Cl)c4)c4ncccc4c3=O)cc2F)ccn1", 2860]
]}
